assay: in vitro; conditions: chlorocebus sabaeus, VERO-E6 cells (Vero C1008), uninfected, CC50
// classify: if (CC50 at 48 h < 0.8 µM) Y else N

# example entries with known answers
molecule: Nc1ncnc2c1ncn2[C@@H]1CC[C@@H](O)[C@H]1O
class.assignment: N
--
molecule: C/C(=C\c1ccc(C(=O)O)cc1)c1ccc2c(c1)C(C)(C)CCC2(C)C
class.assignment: N
--
molecule: CCN(CC)CCO[C@H]1CC[C@@]2(C)C(=CC[C@@H]3[C@@H]2CC[C@]2(C)C(=O)CC[C@@H]32)C1
class.assignment: N
--
molecule: CNC(=O)Nc1ccc(-c2nc(N3CC4CCC(C3)O4)c3cnn(C4CCC5(CC4)OCCO5)c3n2)cc1
class.assignment: Y
--
molecule: Cc1[nH]c(/C=C2\C(=O)Nc3ccc(S(=O)(=O)Cc4c(Cl)cccc4Cl)cc32)c(C)c1C(=O)N1CCC[C@@H]1CN1CCCC1 [PHA-665752]
class.assignment: N

Task item: Consider the molecule CCN(CC)Cc1cc(Nc2ccnc3cc(Cl)ccc23)ccc1O [AMODIAQUINE] . Is its CC50 at 48 h strictly less than 0.8 µM?
Reply: N

Task item: Consider the molecule "CC(C)c1cnn2c(NCc3ccccc3)cc(NCCCCCCN)nc12" . Is its CC50 at 48 h strictly less than 0.8 µM?
Reply: N

Task item: Consider the molecule COc1cc(C[C@H]2c3cc(OC)c(OC)cc3CCN2C)c(Oc2cc3c(cc2OC)-c2c(OC)c(OC)cc4c2[C@H](C3)N(C)CC4)cc1OC [THALICARPINE] . Is its CC50 at 48 h strictly less than 0.8 µM?
Reply: N

Task item: Consider the molecule "CC(C)n1cnc2c(NCCc3ccc(O)cc3)nc(-c3csc4ccccc34)nc21" . Is its CC50 at 48 h strictly less than 0.8 µM?
Reply: N

Task item: Consider the molecule "Cc1ccc(Nc2ncc3c(n2)N(C)C(=O)N(c2cc(NC(=O)c4cccc(C(F)(F)F)c4)ccc2C)C3)cn1" . Is its CC50 at 48 h strictly less than 0.8 µM?
Reply: Y

Task item: Consider the molecule "CCN(CC)c1ccc2cc(-c3nc4ccccc4[nH]3)c(=O)oc2c1" . Is its CC50 at 48 h strictly less than 0.8 µM?
Reply: N

Task item: Consider the molecule Cn1c(Nc2ccc(C(F)(F)F)cc2)nc2cc(Oc3ccnc(-c4ncc(C(F)(F)F)[nH]4)c3)ccc21 [RAF-265] . Is its CC50 at 48 h strictly less than 0.8 µM?
Reply: N

Task item: Consider the molecule COc1cc2c(N3CCN(C(=O)Nc4ccc(OC(C)C)cc4)CC3)ncnc2cc1OCCCN1CCCCC1 [TANDUTINIB] . Is its CC50 at 48 h strictly less than 0.8 µM?
Reply: N
